System: RARg homodimer (NR concentration 270 nM)
Test: PBM binding z-score (relative to random genomic background probes); higher = stronger binding; sequences stand for … in GC…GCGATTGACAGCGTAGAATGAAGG
PBM binding z-score below 4 gives F; PBM binding z-score at or above it gives T.

Some entries whose results are on file:
{"seq": "CGATCTAGGTCAAAGGACAGTGAAAGGCGACGTA", "classification": "T"}
{"seq": "AGTCAAAGTTCACGAGGTAACGTAAGATTCAGCT", "classification": "T"}
{"seq": "ATATGCAGGTTAGGGTCATTCAGAAAGTAGGGAA", "classification": "F"}
{"seq": "CTATGTAGGTGAAGGGGGTCATTCAGTTTGAAAG", "classification": "F"}
{"seq": "TTTCCAAGGTGAAAGGTCGTTGATGCACGCCTTG", "classification": "F"}
{"seq": "ATGTGTAGGTTAGGGTCATTCAGAAAGTAGGGAA", "classification": "F"}
{"seq": "ATCGAAAGGTCGAAGGTGAGTCTACCCACCCGAA", "classification": "F"}
{"seq": "CTCGAAAGGTCGAGCTCAGGTGAGTATACCAAAC", "classification": "T"}

Query: Exam item: decide whether the reported PBM binding z-score for GGAACGAGGGCAAAGGTGATAGCATCTGTCGACG is at least 4.
Response: F

Query: What do you get for GCTTACGGGTCAAAGGTTATGGCATGAATAGAAT ?
Response: T

Query: What do you get for ACTAGTTGGTCACCTGAGGTCACACACAATTCGG ?
Response: T

Query: What do you get for CCGAGTAGGTTACGAGGGGGAATTCAGTGCGAAT ?
Response: F

Query: What do you get for CCTAGTTGGTCAAGGTAACACACGCTATAGGTAC ?
Response: F

Query: What do you get for CGTCCAAGGTCCATGCTAGGTCAGTGAAAGCATT ?
Response: F

Query: What do you get for CGAACTAGGTCAAAGGATAGTGAAAGGCGACGTA ?
Response: T

Query: What do you get for CGAACAAGGTCAAAGGACAGTGAAAGGCGACGTA ?
Response: T

Query: What do you get for CGTCCAAGGTCAAGCTCAGTGAAAGAGACTCGAA ?
Response: T

Query: What do you get for TTACCAAGGTGAAAGGTCGGTGATGCACGCCTTG ?
Response: F

* * *

Test system: LXRa homodimer (NR concentration 270 nM)
Assay: PBM binding z-score (relative to random genomic background probes); higher = stronger binding; sequences stand for … in GC…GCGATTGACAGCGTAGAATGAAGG
Readings of PBM binding z-score for the listed sequences
Write the number on its own, no unit after it.

Examples from the recorded data:
{"seq": "TCTAGTTGGTTACGGAGGTCACACACGACGGGTA", "studyTarget": "LXRa homodimer (NR concentration 270 nM)", "PBM binding z-score": 3.06}
{"seq": "CCTTACGGGTCACTGACAGGTCATAGCATTTGGA", "studyTarget": "LXRa homodimer (NR concentration 270 nM)", "PBM binding z-score": 2.3}
{"seq": "CTATGTAGGTTAAGGGTGTCATTCAGTTTGAAAG", "studyTarget": "LXRa homodimer (NR concentration 270 nM)", "PBM binding z-score": 0.0163}
{"seq": "CTAACTAGGTCACAGAGGTCAAAGTCCGTGCGTA", "studyTarget": "LXRa homodimer (NR concentration 270 nM)", "PBM binding z-score": 7.37}
{"seq": "TCGAGTAGGTTACCGGGGCATTCAGGGATGAAGA", "studyTarget": "LXRa homodimer (NR concentration 270 nM)", "PBM binding z-score": -0.39}

Query: Would you kindly share the measured PBM binding z-score for CCGACTGGGCCATTCAGAGGTCATTGATCATATG ?
Response: 6.59

Query: What do you get for ATCGAAAGGTCGTGAGGTGAGTTTACAGAAAGGC ?
Response: 0.339

Source listed as the supplement of paper PMC6555819.
